All values here come from PubChem BioAssay (NCI).

Provide the reported growth of each item.
Test system: TK-10 renal
Assay: NCI-60 one-dose screen, 48 h (100 = growth as untreated, 0 = no growth, -100 = all killed)
Details: 10 µM unless noted
Compounds without any hit were thinned out: in the full panel of roughly 83,000, 20% have a hit.
Report as a plain number; the unit % is understood.

Tell me growth reported for `COc1ccc2[nH]cc(-c3nc(-c4c[nH]c5ccncc45)cs3)c2c1`
71.1

Tell me growth reported for `COc1ccc(-c2nnc(-c3ccc4c(c3)nc(-c3ccncc3)n4C3CCCCC3)o2)cc1`
75

Tell me growth reported for C=C1CC[C@@H]2[C@](C)(COC(C)=O)[C@H](OC(C)=O)CC[C@@]2(C)[C@@H]1CC(Sc1ccccc1)C1=CCOC1=O (stereo not given in full)
11.4

Tell me growth reported for `Cc1nc(N2CCOCC2)sc1S(N)(=O)=O`
90.1

Tell me growth reported for `COc1cc(-c2csc(NC(=O)c3cc(-n4cnc(C)c4)cc(C(F)(F)F)c3)n2)cc(OC)c1OC`
85.6
